Measured values drawn from ChEMBL document CHEMBL1140244 for this set.

This document collects Ki values reported for Carbonic anhydrase 1 (Homo sapiens, UniProt P00915).
quantity: Ki (nM)

INSERT INTO results (molecule, resultvalue) VALUES
  ('CC1(C)OB(c2ccc(N/C(S)=N/c3ccc(S(N)(=O)=O)cc3Cl)cc2)OC1(C)C', 70.5),
  ('CC1(C)OB(c2ccc(NC(=S)Nc3ccc(S(N)(=O)=O)cc3Br)cc2)OC1(C)C', 72),
  ('CC1(C)OB(c2ccc(NC(=S)Nc3ccc(S(N)(=O)=O)cc3I)cc2)OC1(C)C', 91),
  ('CC1(C)OB(c2ccc(C(=O)NCc3ccc(S(N)(=O)=O)cc3)cc2)OC1(C)C', 69),
  ('CC1(C)OB(c2ccc(NC(=S)Nc3ccc(S(=O)(=O)Nc4nnc(S(N)(=O)=O)s4)cc3)cc2)OC1(C)C', 34),
  ('CC1(C)OB(c2ccc(NC(=S)Nc3ccc(S(N)(=O)=O)cc3)cc2)OC1(C)C', 69);
